Overview of recorded IC50 for various compounds
assay: Cytotoxicity against human Hep3B cells by MTT assay; type: functional, cell-based, Hep 3B2; conditions: Homo sapiens, Hep3B; read-out: IC50
ENDPOINT: IC50

1. COc1ccc(-c2cc(=O)oc3cc(OC)c(O)cc23)cc1O = > 17.1 mg/L
2. COc1cc(C2CCOc3cc(OC)c(O)cc32)ccc1O (stereo not drawn) = > 17.1 mg/L
3. COc1ccc([C@H]2Oc3cc(OC)c(OC)cc3[C@@H]2C)cc1O = > 19.4 mg/L

Sourced from ChEMBL document CHEMBL1799983
